Tested on: human prostate PC3-mm2 tumor cell line
Protocol: In vitro cell culture growth assay (MTS), PC3-mm2
Type: cell-based
Measurement Context: Homo sapiens, PC3MM2, 72 h, MTS cell growth assay, three days after drug treatment; read-out: IC50 PC3-mm2
Measured Attribute: pIC50
Entry type: numeric. Quantity: pIC50, the -log10 of concentration in molar units.

Record excerpt, results attached:
In [3]: df
Out[3]:
                                   compound  measured_result
0  CCc1nc(-c2ccc(NC(=O)Nc3ccc(C(=O)NC4CCN(C)CC4)cc3)cc2)nc(N2CCOCC2)n1             6.89
1  Cc1cc(NC(=O)Nc2ccc(-c3nc(OC4CCOCC4)nc(N4CCOCC4)n3)cc2)ccn1             7.21
2  O=C(Nc1ccncc1)Nc1ccc(-c2nc(C3CCOCC3)nc(N3CCOCC3)n2)cc1             7.43
3  CN1CCN(Cc2ccc(NC(=O)Nc3ccc(-c4nc(N5CCOCC5)nc(N5C6CCC5COC6)n4)cc3)cc2)CC1             7.51
4  CN(C)C1CCN(C(=O)c2ccc(NC(=O)Nc3ccc(-c4nc(N5CCOCC5)nc(N5CCOCC5)n4)cc3)cc2)C1 (stereo not drawn)             8.00
5  O=C(Nc1ccc(C(=O)NC2CN3CCC2CC3)cc1)Nc1ccc(-c2nc(N3CCOCC3)nc(N3CCOCC3)n2)cc1 (stereo not drawn)             6.97
6  Cc1nc(-c2ccc(NC(=O)Nc3ccc(C(=O)N(C)CCN(C)C)cc3)cc2)nc(N2CCOCC2)n1             6.48
7  C=Cc1ccc(NC(=O)Nc2ccc(-c3nc(N4CCOCC4)nc(N4C5CCC4COC5)n3)cc2)cc1             6.85
8  CCCCc1nc(-c2ccc(NC(=O)Nc3ccc(C(=O)N4CCC(Cc5ccccc5)CC4)cc3)cc2)nc(N2CCOCC2)n1             6.02
9  O=C(Nc1ccncc1)Nc1ccc(-c2nc(N3CCCC3)nc(N3CC4CCC(C3)O4)n2)cc1             6.49

What value of pIC50 has been reported for the following compound? `O=C(Nc1ccc(-c2nc(N3CCOCC3)nc(N3CCC4(CC3)OCCO4)n2)cc1)Nc1cccnc1`
6.08

And `O=C(Nc1ccncc1)Nc1ccc(-c2nc(N3CCOCC3)nc(N3CCC4(CC3)OCCO4)n2)cc1` ?
6.38

What do you get for `CCc1nc(-c2ccc(NC(=O)Nc3ccc(C(=O)O)cc3)cc2)nc(N2CCOCC2)n1` ?
5.48

What do you get for `O=C(Nc1ccc(C(=O)N2CCOCC2)cc1)Nc1ccc(-c2nc(N3CCOCC3)nc(N3CCOCC3)n2)cc1` ?
7.85
